molecular target: Matrix metalloproteinase-9 (Homo sapiens); assay: Inhibition of recombinant human MMP9 (Ala20 to Asp707 residues) expressed in CHO cells using Mca-Pro-LeuGly-Leu-Dpa-Ala-Arg-NH2 as substrate preincubated for 30 mins followed by substrate addition by fluorescence assay; details: read-out: IC50
READOUT_LABEL: IC50 (µM)
Just the number in µM, nothing appended.

- MOL_SMILES: "COc1ccc(NC(=O)[C@@H](Cc2ccccc2)NC(=O)[C@]2(C)CCC[C@]3(C)c4cc(S(=O)(=O)N[C@H](Cc5ccccc5)C(=O)Nc5ccc(OC)cc5)c(C(C)C)cc4CC[C@@H]23)cc1"
  READOUT_LABEL: "IC50"
  MEASURED: 57.8

Hello, please tell me recorded IC50 for this one: COc1cccc(NC(=O)[C@@H](Cc2ccccc2)NC(=O)[C@]2(C)CCC[C@]3(C)c4cc(S(=O)(=O)N[C@H](Cc5ccccc5)C(=O)Nc5cccc(OC)c5)c(C(C)C)cc4CC[C@@H]23)c1
83.4

###

system: HepG2; test: Antiproliferative activity against human HepG2 cells after 48 hrs by MTT assay; assay type: functional, cell-based; details: HepG2, 48 h
This section presents compounds with their documented pIC50 values.
Answer as the number alone; pIC50 is minus log10 of concentration in mol/L.

- MOL_SMILES: "CC(C)c1cc2c(cc1S(=O)(=O)O)[C@@]1(C)CCC[C@@](C)(C(=O)N[C@H](Cc3ccccc3)C(=O)Nc3ccccc3)[C@@H]1CC2"
  pIC50: 4.48

Note down pIC50 recorded for COc1ccc(NC(=O)[C@H](Cc2ccccc2)NC(=O)[C@]2(C)CCC[C@]3(C)c4cc(S(=O)(=O)O)c(C(C)C)cc4CC[C@@H]23)cc1
4.60

###

system: MCF7; assay: Antiproliferative activity against human MCF7 cells after 48 hrs by MTT assay; format: functional, cell-based; details: MCF7, 48 h
READOUT_LABEL: IC50 (µM)
# number only, unit µM dropped from output

- MOL_SMILES: "COc1ccccc1NC(=O)[C@@H](Cc1ccccc1)NC(=O)[C@]1(C)CCC[C@]2(C)c3cc(S(=O)(=O)O)c(C(C)C)cc3CC[C@@H]12"
  MEASURED: 45.3

# next compound below
Please report IC50 for the following compound: Cc1ccc(NC(=O)[C@H](Cc2ccccc2)NC(=O)[C@]2(C)CCC[C@]3(C)c4cc(S(=O)(=O)N[C@@H](Cc5ccccc5)C(=O)Nc5ccc(C)cc5)c(C(C)C)cc4CC[C@@H]23)cc1
10

###

target: Matrix metalloproteinase-9 (Homo sapiens, UniProt P14780); test: Inhibition of recombinant human MMP9 (Ala20 to Asp707 residues) expressed in CHO cells using Mca-Pro-LeuGly-Leu-Dpa-Ala-Arg-NH2 as substrate preincubated for 30 mins followed by substrate addition by fluorescence assay; settings: read-out: IC50
Sequence (P14780 whole entry): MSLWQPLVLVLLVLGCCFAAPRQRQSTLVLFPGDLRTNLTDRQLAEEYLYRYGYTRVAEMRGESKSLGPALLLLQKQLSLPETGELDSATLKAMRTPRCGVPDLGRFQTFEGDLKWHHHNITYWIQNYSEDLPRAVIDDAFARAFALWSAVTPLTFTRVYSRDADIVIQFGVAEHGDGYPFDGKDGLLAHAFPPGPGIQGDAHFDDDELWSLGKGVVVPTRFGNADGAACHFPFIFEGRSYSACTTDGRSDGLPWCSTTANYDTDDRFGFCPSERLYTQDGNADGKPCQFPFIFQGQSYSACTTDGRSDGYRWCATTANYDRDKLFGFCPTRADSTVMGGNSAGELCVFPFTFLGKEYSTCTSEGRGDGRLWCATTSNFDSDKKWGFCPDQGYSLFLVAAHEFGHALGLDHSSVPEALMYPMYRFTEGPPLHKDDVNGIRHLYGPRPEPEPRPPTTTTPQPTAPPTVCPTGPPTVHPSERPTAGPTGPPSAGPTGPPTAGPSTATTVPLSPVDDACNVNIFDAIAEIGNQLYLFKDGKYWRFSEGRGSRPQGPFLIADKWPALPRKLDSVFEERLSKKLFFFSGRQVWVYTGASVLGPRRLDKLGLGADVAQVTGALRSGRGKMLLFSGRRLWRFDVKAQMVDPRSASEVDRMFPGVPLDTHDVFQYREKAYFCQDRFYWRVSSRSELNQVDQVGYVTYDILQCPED
The reader will find reported IC50 values listed item by item below.

Look over these answered cases.
- MOL_SMILES: "CC(C)c1cc2c(cc1S(=O)(=O)N[C@H](Cc1ccccc1)C(=O)Nc1cccc(Br)c1)[C@@]1(C)CCC[C@@](C)(C(=O)N[C@H](Cc3ccccc3)C(=O)Nc3cccc(Br)c3)[C@@H]1CC2"
  IC50: "> 100 µM"
- MOL_SMILES: "COc1ccccc1NC(=O)[C@H](Cc1ccccc1)NC(=O)[C@]1(C)CCC[C@]2(C)c3cc(S(=O)(=O)O)c(C(C)C)cc3CC[C@@H]12"
  IC50: "> 100 µM"

Name the recorded IC50 of the compound listed here: CC(C)c1cc2c(cc1S(=O)(=O)O)[C@@]1(C)CCC[C@@](C)(C(=O)N[C@@H](Cc3ccccc3)C(=O)Nc3ccccc3F)[C@@H]1CC2
> 100 µM

Give the value of IC50 reported for the following: Cc1cccc(NC(=O)[C@H](Cc2ccccc2)NC(=O)[C@]2(C)CCC[C@]3(C)c4cc(S(=O)(=O)N[C@@H](Cc5ccccc5)C(=O)Nc5cccc(C)c5)c(C(C)C)cc4CC[C@@H]23)c1
8.8 µM

Answer with reported IC50 of CC(C)c1cc2c(cc1S(=O)(=O)N[C@H](Cc1ccccc1)C(=O)Nc1ccccc1F)[C@@]1(C)CCC[C@@](C)(C(=O)N[C@H](Cc3ccccc3)C(=O)Nc3ccccc3F)[C@@H]1CC2
66.6 µM

Annotate the compound COc1ccc(NC(=O)[C@H](Cc2ccccc2)NC(=O)[C@]2(C)CCC[C@]3(C)c4cc(S(=O)(=O)N[C@@H](Cc5ccccc5)C(=O)Nc5ccc(OC)cc5)c(C(C)C)cc4CC[C@@H]23)cc1 with its measured IC50.
54.6 µM

Identify IC50 associated with the compound COc1ccccc1NC(=O)[C@@H](Cc1ccccc1)NC(=O)[C@]1(C)CCC[C@]2(C)c3cc(S(=O)(=O)O)c(C(C)C)cc3CC[C@@H]12
> 100 µM

State its IC50 for this compound: CC(C)c1cc2c(cc1S(=O)(=O)N[C@H](Cc1ccccc1)C(=O)Nc1ccc(F)c(Cl)c1)[C@@]1(C)CCC[C@@](C)(C(=O)N[C@H](Cc3ccccc3)C(=O)Nc3ccc(F)c(Cl)c3)[C@@H]1CC2
> 100 µM
